System: A549/ATCC NSCLC
Experiment: NCI-60 one-dose screen, 48 h (100 = growth as untreated, 0 = no growth, -100 = all killed)
Settings: 10 µM unless noted
Procedure: Growth inhibition of the A549/ATCC human Non-Small Cell Lung tumor cell line is measured as a screen for anti-cancer activity. Cells are grown in 96 well plates and exposed to the test compound for 48 hours. Compounds are tested at a single concentration, which is 10^-5 M for most compounds. The reported endpoint is percent growth (GI% or GIPRCNT), where numbers from 0 - 100% represent growth inhibition, and numbers from -100% - 0 represent cell death. […]
The panel holds about 83,000 compounds, 20% with a hit somewhere; the sample as a whole holds those more often.
Catalogue of growth values
Hi! Could you send only the number? It should be in %, unit omitted.

Recorded growth, per entry:
In [3]: df
Out[3]:
                                   compound     assay_target  assay_value
0                        CCCCCCCCCCNC(=O)CI  A549/ATCC NSCLC         95.1
1                  c1ccc(-c2nc3ccccc3s2)cc1  A549/ATCC NSCLC          105
2    NN1CCOC(c2ccccc2)C1 (stereo not drawn)  A549/ATCC NSCLC          104
3  Nc1ncnc2c1ncn2C1OC(COP(=O)(O)O)C(O)C1O (stereo not drawn)  A549/ATCC NSCLC          114
4                ClCCOCCOc1ccc(C2CCCCC2)cc1  A549/ATCC NSCLC         86.6
5       CC(=O)NCC(=O)c1ccc([N+](=O)[O-])cc1  A549/ATCC NSCLC          101
6                O=C(/C=C/c1ccccc1)c1ccccc1  A549/ATCC NSCLC         96.3
7                                O=C(O)CCCl  A549/ATCC NSCLC          104
8                          Nc1cc(N)c(N)cc1N  A549/ATCC NSCLC         88.1
9  COc1ccc2cc1Oc1ccc(cc1)C[C@H]1c3cc(c(OC)cc3CCN1C)Oc1c(OC)c(OC)cc3c1[C@H](C2)N(C)CC3  A549/ATCC NSCLC         39.6

Value of measured growth for the entry CC1=C/C(O)CC(=O)Cc2nc(co2)C(=O)N2CCC=C2C(=O)OC(C(C)C)C(C)/C=C\C(=O)NC/C=C\1 (stereo not drawn) : 83

Value of measured growth for the entry CC(C)(O)C(=O)O : 102

Value of measured growth for the entry C/C(=C\c1ccccc1)c1ccccn1 : 115

====

tested on: NCI-H226 lung; test: NCI-60 one-dose screen, 48 h (100 = growth as untreated, 0 = no growth, -100 = all killed); conditions: 10 µM unless noted
Compounds without any hit were thinned out: in the full panel of roughly 83,000, 20% have a hit. Calls of active or inactive are those of the source. How the source made its calls: active means growth percent below 10; inactive means the rest.
Catalogue of growth values

Recorded growth, per entry:
>>> print(df.to_string())
                                   molecule       assay_value
0  CN(C)CC1CCCCCC(CN(C)C)C1=O (stereo not given)  91.4% (inactive)
1              CC(C)NC(=O)N/C=C(\C#N)C(N)=O  97.5% (inactive)
2    NN1CCOC(c2ccccc2)C1 (stereo not given)  99.4% (inactive)
3                             OCCN1CCCCCCC1  93.8% (inactive)

Turning now to a further record.
Value of measured growth for the entry Cc1cc(-c2cc(C)c(O)c(C)c2)cc(C)c1O : 96.2% (inactive)

====

tested on: T-47D breast; test: NCI-60 one-dose screen, 48 h (100 = growth as untreated, 0 = no growth, -100 = all killed); details: 10 µM unless noted
This is part of a sample that, as a whole, favours compounds with a hit. Of some 83,000 tested, about 20% had one in any assay. Active and inactive are the calls of the source. Rule for the calls: active = growth percent below 10; inactive = the rest.
readout_kind: growth

Recorded growth, per entry:
>>> print(df.to_string())
                                   compound       assay_value
0              CC(C)NC(=O)N/C=C(\C#N)C(N)=O   101% (inactive)
1  NC(Cc1c[nH]c2ccccc12)C(=O)O (stereo not given)   110% (inactive)
2  Cc1cc(-c2ccc(N=Nc3ccc4c(S(=O)(=O)O)cc(S(=O)(=O)O)c(N)c4c3O)c(C)c2)ccc1N=Nc1ccc2c(S(=O)(=O)O)cc(S(=O)(=O)O)c(N)c2c1O  93.1% (inactive)
3  O=c1n(CC2CO2)c(=O)n(CC2CO2)c(=O)n1CC1CO1 (stereo not given)  53.5% (inactive)

Turning now to a further record.
Value of measured growth for the entry O=[N+]([O-])c1cccc(SSc2cccc([N+](=O)[O-])c2)c1 : 76.9% (inactive)

====

tested on: SN12C renal; assay: NCI-60 one-dose screen, 48 h (100 = growth as untreated, 0 = no growth, -100 = all killed); conditions: 10 µM unless noted
About 83,000 compounds went through this panel and 20% of them were active in at least one assay; those are over-represented in the sample as a whole. Calls of active or inactive are those of the source. The calls were made as follows: active = growth percent below 10; inactive = the rest.
readout_kind: growth

Recorded growth, per entry:
>>> print(df.to_string())
                                   molecule       assay_value
0                       C#CCOC(=O)Nc1ccccc1   101% (inactive)
1                          CCc1cc(C)cc(O)c1   105% (inactive)
2  CC(=O)OC(C)C(=O)NCC(C)O (configuration not stated)   106% (inactive)
3              Cc1ccc(S(=O)(=O)c2ccccc2)cc1  50.4% (inactive)
4  O=[N+]([O-])c1cccc(SSc2cccc([N+](=O)[O-])c2)c1  93.7% (inactive)
5                  CCCCNc1ccc(Nc2ccccc2)cc1  71.9% (inactive)

Value of measured growth for the entry NN1CCOC(c2ccccc2)C1 (configuration not stated) : 102% (inactive)

Value of measured growth for the entry CC1(C)COC(=S)N1 : 93.5% (inactive)

Value of measured growth for the entry CC(C)NC(=O)N/C=C(\C#N)C(N)=O : 99.1% (inactive)

Value of measured growth for the entry CC1CCC2(OC1)OC1CC3C4CC=C5CC(O)CCC5(C)C4CCC3(C)C1C2C (configuration not stated) : 100% (inactive)

Value of measured growth for the entry Fc1ccc([I+]c2ccc(F)cc2)cc1 : 92.9% (inactive)

Value of measured growth for the entry c1ccc(-c2nc3ccccc3s2)cc1 : 88.7% (inactive)

Value of measured growth for the entry C/C(=C\c1ccccc1)c1ccccn1 : 95.8% (inactive)

Value of measured growth for the entry Cn1cnc([N+](=O)[O-])c1Sc1ncn[nH]1 : 101% (inactive)

Value of measured growth for the entry NC(=O)NCCCC(N)C(=O)O (configuration not stated) : 104% (inactive)

Value of measured growth for the entry CC(=O)NCC(=O)c1ccc([N+](=O)[O-])cc1 : 105% (inactive)

Value of measured growth for the entry O=C1OC(c2ccccc2)=N/C1=C\c1ccccc1 : 102% (inactive)

====

system: SF-295 CNS; assay: NCI-60 one-dose screen, 48 h (100 = growth as untreated, 0 = no growth, -100 = all killed); settings: 10 µM unless noted
Compounds without any hit were thinned out: in the full panel of roughly 83,000, 20% have a hit.
readout_kind: growth (%)
Hi! Could you send only the number? It should be in %, unit omitted.

Recorded growth, per entry:
In [3]: df
Out[3]:
                                   molecule  assay_value
0  CC1CCC2(OC1)OC1CC3C4CC=C5CC(O)CCC5(C)C4CCC3(C)C1C2C (stereo unspecified)          119
1  CC1CCC(C(C)C)C(NNC(N)=O)C1 (stereo unspecified)          103
2                ClCCOCCOc1ccc(C2CCCCC2)cc1         97.1

Value of measured growth for the entry C/C(=C\c1ccccc1)c1ccccn1 : 113

Value of measured growth for the entry CCCCCCCCCCCCCCCCC(C(=O)O)C(O)(CC(=O)O)C(=O)O (stereo unspecified) : 15.4

Value of measured growth for the entry CCCCCCCCCCCCCCCc1ccc(N)c(OC2OC(CO)C(O)C(O)C2O)c1 (stereo unspecified) : 92.2

====

test system: OVCAR-5 ovarian; experiment: NCI-60 one-dose screen, 48 h (100 = growth as untreated, 0 = no growth, -100 = all killed); settings: 10 µM unless noted
The panel holds about 83,000 compounds, 20% with a hit somewhere; the sample as a whole holds those more often.
Catalogue of growth values
Hi! Could you send only the number? It should be in %, unit omitted.

Recorded growth, per entry:
>>> df
                                   compound  units_symbol  assay_value
0  CC(=O)OC(C)C(=O)NCC(C)O (stereo unspecified)             %          104
1                               O=CN1CCCCC1             %          104
2               c1ccc2c(c1)OC1OC2Oc2ccccc21             %          103
3                      Nc1nc(N)c2[nH]cnc2n1             %         90.3
4                Brc1ccc(SSc2ccc(Br)cc2)cc1             %         90.8

Value of measured growth for the entry CC1CCC2(OC1)OC1CC3C4CC=C5CC(O)CCC5(C)C4CCC3(C)C1C2C (stereo unspecified) : 114
